# Measurement Description: Haemolytic assay
# Type: cell-based
# Test Conditions: human 'O' erythrocytes; Human RBCs, 2X MIC; read-out: Haemolysis
Property Name: hemolysis at 2 X MIC
Note to self: number, then unit, no commentary.

[ask] Which value of hemolysis at 2 X MIC has been reported for Cc1ccc(C(C)C)cc1O in the records?
[reply] 57.2%

[ask] May I ask what hemolysis at 2 X MIC has been recorded for Cc1ccc(C(C)C)c(O)c1 ?
[reply] 13.5%

[ask] Which hemolysis at 2 X MIC reading was recorded for the compound O=C/C=C/c1ccccc1 ?
[reply] 5%

###

# Measurement Description: Haemolytic assay
# Type: cell-based
# Test Conditions: sheep erythrocytes; Sheep RBCs, 1X MIC; read-out: Haemolysis
Property Name: hemolysis at 1 X MIC (%)
The reply should be a number in %, with the unit left off.

[ask] If you can, please state the reported hemolysis at 1 X MIC value of O=C/C=C/c1ccccc1 .
[reply] 3.61

[ask] hemolysis at 1 X MIC lookup needed for Cc1ccc(C(C)C)cc1O , thanks.
[reply] 1.25

[ask] Name the reported hemolysis at 1 X MIC value associated with the compound Cc1ccc(C(C)C)c(O)c1
[reply] 1.49

Origin of measurements: paper PMC8286599
